Provide the recorded Ligand efficiency (binding enery per heavy atom) for the entries that follow.
- Tested system: SARS-CoV-2 NSP3 macrodomain (Mac1) (Severe acute respiratory syndrome coronavirus 2, UniProt P0DTD1)
- Assay comment: biochemical
- Assay type: binding
- Condition description: SARS CoV-2 macrodomain HTRF assay
Numbers only.

CC(O)C1CCCN1c1ncnc2[nH]ccc12 (stereo not drawn) [AVI-4062] :: 0.35
Cc1c[nH]c2ncnc(NCC3(O)CCC3)c12 [AVI-3571] :: 0.39
OC1(CNc2ncnc3[nH]ccc23)CCC2(CC1)OCCO2 [AVI-4315] :: 0.23
CCC(O)[C@H]1CCCN1c1ncnc2[nH]ccc12 (stereo partly drawn) [AVI-3666] :: 0.34
OCC1CC2(CCCC2)CN1c1ncnc2[nH]ccc12 (stereo not drawn) [AVI-3708] :: 0.32
OCC1C2CCC(C2)N1c1ncnc2[nH]ccc12 (stereo not drawn) [AVI-3713] :: 0.35
OCC1CCC2(CCOCC2)CN1c1ncnc2[nH]ccc12 (stereo not drawn) [AVI-4065] :: 0.21
O[C@H]1CC[C@H]2CCN(c3ncnc4[nH]ccc34)[C@H]21 [AVI-5997] :: 0.34
CC1(C)CCC(O)(CNc2ncnc3[nH]ccc23)CC1 [AVI-4310] :: 0.29
CC1CCCC(O)(CNc2ncnc3[nH]ccc23)C1 (stereo not drawn) [AVI-4307] :: 0.32

# per-item lookup of Ligand efficiency (binding enery per heavy atom); items listed below
1. OC[C@@H]1C[C@@H]2CCC[C@@H]2N1c1ncnc2[nH]ccc12 [AVI-3720]
2. Cc1c[nH]c2ncnc(NCC3(O)CCC(C)(C)CC3)c12 [AVI-4330]
3. O[C@H]1CC[C@@H]2CCN(c3ncnc4[nH]ccc34)[C@@H]21 [AVI-3664]

1. 0.33
2. 0.21
3. 0.35

----------
- Tested system: SARS-CoV-2 NSP3 macrodomain (Mac1) (Severe acute respiratory syndrome coronavirus 2, UniProt P0DTD1)
- Type: binding
- Condition description: crystal soak 10 mM; TFA/DMSO background map
Label yes when PanDDA run, TFA/DMSO background map: 1-BDC is strictly below 0.2; otherwise label no.

CC(C)(C)CC(CO)Nc1ncnc2[nH]ccc12 (centres unmarked) :: yes
OCC(Nc1ncnc2[nH]ccc12)C1CCOC1 (centres unmarked) :: yes
O=C(O)C(F)(F)F.OCC1(Nc2ncnc3[nH]ccc23)CC1 :: yes
OCC(CC(F)(F)F)Nc1ncnc2[nH]ccc12 (centres unmarked) :: no

Okay, next one:
Is the reported PanDDA run, TFA/DMSO background map: 1-BDC for OC1CCCN(c2ncnc3[nH]ccc23)C1 (centres unmarked) strictly below 0.2? yes

----------
- Tested system: SARS-CoV-2 NSP3 macrodomain (Mac1) (Severe acute respiratory syndrome coronavirus 2, UniProt P0DTD1)
- Assay comment: biochemical
- Format: binding
- Condition description: SARS CoV-2 macrodomain HTRF assay
Property measured: Ligand efficiency (binding enery per heavy atom)
Answers are plain numbers.

# per-item lookup of Ligand efficiency (binding enery per heavy atom); items listed below
1. CN(CC1(O)CCOCC1)c1ncnc2[nH]ccc12
2. O=S1(=O)CCCC(O)(CNc2ncnc3[nH]ccc23)C1 (stereo not shown)
3. OC1(CNc2ncnc3[nH]ccc23)CCCSC1 (stereo not shown)
4. CC1CCC(O)(CNc2ncnc3[nH]ccc23)CC1 (stereo not shown)
5. CC1(C)C[C@@H](CO)N(c2ncnc3[nH]ccc23)C1.O=C(O)C(F)(F)F

1: 0.30; 2: 0.28; 3: 0.33; 4: 0.34; 5: 0.35

# per-item lookup of Ligand efficiency (binding enery per heavy atom); items listed below
1. CCC(C)(CO)Nc1ncnc2[nH]ccc12 (stereo not shown)
2. O=C(O)C(F)(F)F.OCC1(Nc2ncnc3[nH]ccc23)CCCC1

[0.39, 0.35]

----------
Provide the recorded Average % competition for the entries that follow.
- Tested system: SARS-CoV-2 NSP3 macrodomain (Mac1) (Severe acute respiratory syndrome coronavirus 2)
- Assay comment: biochemical
- Assay type: binding
- Condition description: Single dose, concentration 200 μM

See these solved cases before continuing.
O=C(O)C(F)(F)F.OCC(CC1CCOCC1)Nc1ncnc2[nH]ccc12 (stereo not drawn) :: <10%
OCC(Cc1ccc(I)cc1)Nc1ncnc2[nH]ccc12 (stereo not drawn) :: <10%

Quote Average % competition reported for "OCC1(Nc2ncnc3[nH]ccc23)COC1" please. <10%

----------
- Tested system: SARS-CoV-2 NSP3 macrodomain (Mac1) (Severe acute respiratory syndrome coronavirus 2)
- Assay comment: biochemical
- Format: binding
- Condition description: single dose concentration 200 μM (TS-FrankenROCS series)
Provide the recorded Average % competition for the entries that follow.

Nc1cc(N2CCC3CCCCC3C2)ncn1 (stereo not drawn) [AVI-339] :: <10%
CC1CCN(C(=O)c2ccc3c(c2)nc(CO)n3C)CC1C(=O)O (stereo not drawn) [AVI-348] :: <10%

Please examine the following record next.
Quote Average % competition reported for O=c1[nH]c2ccccc2cc1CNc1nc(C2CC2)ns1 [AVI-346] please. <10%

----------
- Tested system: SARS-CoV-2 NSP3 macrodomain (Mac1) (Severe acute respiratory syndrome coronavirus 2)
- Assay comment: biochemical
- Assay type: binding
- Condition description: SARS CoV-2 macrodomain HTRF assay, dose-response; read-out: IC50
Label y when IC50 is strictly below 70 µM; otherwise label n.

Worked set:
CC1(C)C[C@@H](CO)N(c2ncnc3[nH]ccc23)C1.O=C(O)C(F)(F)F [AVI-3704] :: y
Cc1c[nH]c2ncnc(NCC3(O)CCC(C)(C)CC3)c12 [AVI-4330] :: n
Cc1c[nH]c2ncnc(NCC3(O)CCOCC3)c12 [AVI-4194] :: n

Okay, next one:
Is the reported IC50 for O=C(O)C(F)(F)F.OCC1(Nc2ncnc3[nH]ccc23)CCC1 [AVI-3670] strictly below 70 µM? y

----------
Provide the recorded inhibition at 200 µM for the entries that follow.
- Tested system: SARS-CoV-2 NSP3 macrodomain (Mac1) (Severe acute respiratory syndrome coronavirus 2)
- Assay comment: biochemical
- Assay type: binding
- Condition description: compound at 200 μM; mean of three to four technical replicates; read-out: % competition at 200 μM (preliminary HTRF screen)
Numbers only, in %.

# per-item lookup of inhibition at 200 µM; items listed below
1. Cc1cc2c(=O)n(CCN3C(=O)c4ccccc4S3(=O)=O)nnc2s1
2. CC(C)(O)[C@@H]1CCCN1c1ncnc2[nH]ccc12
3. OCC(Cc1ccoc1)Nc1ncnc2[nH]ccc12 (stereo not drawn)

1: 11; 2: 75; 3: 64

----------
Provide the recorded Average % competition for the entries that follow.
- Tested system: SARS-CoV-2 NSP3 macrodomain (Mac1) (Severe acute respiratory syndrome coronavirus 2)
- Assay comment: biochemical
- Type: binding
- Condition description: Single dose, concentration 200 μM
Give bare numbers, in %.

CCC(Nc1ncnc2[nH]ccc12)C(C)(C)O (centres unmarked) :: 51
OCC(CC(F)(F)F)Nc1ncnc2[nH]ccc12 (centres unmarked) :: 50
OCC(Nc1ncnc2[nH]ccc12)C1CCOC1 (centres unmarked) :: 35
OCC(Cc1c[nH]c2ccccc12)Nc1ncnc2[nH]ccc12 (centres unmarked) :: 71
OCC(CC1CCCC1)Nc1ncnc2[nH]ccc12 (centres unmarked) :: 52

# per-item lookup of Average % competition; items listed below
1. Cc1ccc(CC(CO)Nc2ncnc3[nH]ccc23)cc1 (centres unmarked)
2. O=C(O)C(F)(F)F.OCC(Cc1cccc(F)c1)Nc1ncnc2[nH]ccc12 (centres unmarked)
3. OCC(CC1CCC1)Nc1ncnc2[nH]ccc12 (centres unmarked)
4. CC(O)C(C)Nc1ncnc2[nH]ccc12 (centres unmarked)
5. O=C(O)C(F)(F)F.OCC(Nc1ncnc2[nH]ccc12)C(O)C1CCCCC1 (centres unmarked)
6. OCC(Nc1ncnc2[nH]ccc12)C1CCC1 (centres unmarked)
7. OCC(Cc1nccs1)Nc1ncnc2[nH]ccc12 (centres unmarked)

[14, 77, 32, 32, 33, 77, 38]

# per-item lookup of Average % competition; items listed below
1. OCC(Nc1ncnc2[nH]ccc12)c1ccccc1 (centres unmarked)
2. OCC(CC1CC1)Nc1ncnc2[nH]ccc12 (centres unmarked)
3. OCC(Nc1ncnc2[nH]ccc12)c1ccco1 (centres unmarked)

[54, 44, 55]

# per-item lookup of Average % competition; items listed below
1. OCC(Nc1ncnc2[nH]ccc12)C1CCCC1 (centres unmarked)
2. OC1CC(Cn2ccnc2)CC1Nc1ncnc2[nH]ccc12 (centres unmarked)
3. O=C(O)C(F)(F)F.OCC1(Nc2ncnc3[nH]ccc23)CC1
4. CCC(Nc1ncnc2[nH]ccc12)C(C)O (centres unmarked)
5. CC(C)CCC(CO)Nc1ncnc2[nH]ccc12.O=C(O)C(F)(F)F (centres unmarked)

1. 68
2. 29
3. 72
4. 54
5. 38

----------
- Tested system: SARS-CoV-2 NSP3 macrodomain (Mac1) (Severe acute respiratory syndrome coronavirus 2)
- Assay comment: biochemical
- Format: binding
- Condition description: SARS CoV-2 macrodomain HTRF assay
Provide the recorded Ligand efficiency (binding enery per heavy atom) for the entries that follow.
One number for each entry.

See these solved cases before continuing.
CC(C)(O)C1N(c2ncnc3[nH]ccc23)CCC1(C)C (centres unmarked) :: 0.28
OC[C@@H]1C[C@H](O)CN1c1ncnc2[nH]ccc12 :: 0.31

# per-item lookup of Ligand efficiency (binding enery per heavy atom); items listed below
1. CC(c1ccccc1)C(CO)Nc1ncnc2[nH]ccc12 (centres unmarked)
2. OC1(CNc2ncnc3[nH]ccc23)COC2CC1C2 (centres unmarked)

[0.33, 0.29]

Quote Ligand efficiency (binding enery per heavy atom) reported for OCC1CC=CCN1c1ncnc2[nH]ccc12 (centres unmarked) please. 0.35
